System: S. pneumoniae
Assay: Biological activity against bacterial strains: S. pneumoniae
Assay type: cell-based, Streptococcus pneumoniae
Design: unit not given here
Conditions: strain ATCC700676, macrolide resistant strain
Quantity Name: Biological Activity, S. pneumoniae ATCC700676*
// print number alone

The cases that follow already have their Biological Activity, S. pneumoniae ATCC700676* on record.
{"Compound": "CCC1OC(=O)CC(O)C(C)C(OC2OC(C)C(O)C(N(C)C)C2O)C(CC=O)CC(C)C(=NOCCCOc2ccc3ncccc3c2)C=CC(C)=CC1CO (stereo not drawn)", "Measured Number": 0.025}
{"Compound": "CCC1OC(=O)CC(O)C(C)C(OC2OC(C)C(O)C(N(C)C)C2O)C(CCN2CC(C)CC(C)C2)CC(C)C(=NOCCCOc2ccc3ncccc3c2)C=CC(C)=CC1COC1OC(C)C(O)C(OC)C1OC (single isomer, unassigned) [Compound L]", "Measured Number": 0.049}

IN: Biological Activity, S. pneumoniae ATCC700676* of CCC1OC(=O)CC(O)C(C)C(OC2OC(C)C(O)C(N(C)C)C2O)C(CCN2CC(C)CC(C)C2)CC(C)C(=NOCCCCOc2ccc3ncccc3c2)C=CC(C)=CC1COC1OC(C)C(O)C(OC)C1OC (single isomer, unassigned) [Compound M] on S. pneumoniae?
OUT: 1.56

Reference for the values: patent US7247617B2
